Where do the numbers come from? From paper PMC5540273.

System: MST3
Construct: gene STK24
experimental.setup: concentration: 1 μM, replicates: in singlicate; n = 1;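 further: KINOMEscan kinase panel screen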
reported.property: %Inh (%)
Note: unit % is implicit; provide only the numeric part.

Consider the molecule c1ccc(-c2cc(-c3c[nH]nc3-c3ccccn3)ccn2)cc1 and give its measured %Inh.
0

For the molecule COc1cc2c(cc1OC[C@@H](O)CO)ncc1c3ccc(C#N)cc3[nH]c21 , what %Inh is on record?
11

Look up %Inh for this molecule: [2H]C([2H])(c1cccc(C(F)(F)F)c1C)n1ccn2c(=O)nc(N3CCOCC3)cc12
11

Data request, read-out %Inh, for Cc1nnc(-c2ccc3occ(-c4ccc(C(C)O)cc4)c3c2)o1 (stereo not drawn)
0

%Inh for Nc1nccc(-c2c(-c3ccc(F)cc3)ncn2C2CCN(CC(F)(F)F)CC2)n1 ?
0

Give the measured %Inh of O=C(Nc1cccc(-c2nn3ncccc3c2-c2ccnc(Nc3cccc(C(F)(F)F)c3)n2)c1)c1c(F)cccc1F .
0

Need %Inh, item CSc1ccc(-c2cc3ncnc(SCC(=O)O)c3s2)cc1
22

If you can, please state the reported %Inh value of NS(=O)(=O)CCc1cccc(Nc2nccc(-c3c(-c4cccc(NC(=O)c5c(F)cccc5F)c4)nn4ccccc34)n2)c1 .
13

Which %Inh value belongs to COc1ccc(Nc2ncc(C#N)c(Nc3ccccc3C(N)=O)n2)cc1N1CCN(C)CC1.Cl ?
95.5

Value lookup for %Inh; key = O=C1NC(=O)C(N2CCc3ccccc32)=C1c1cccc(Cl)c1
4

Item under review: COc1cc2ncn(-c3cc(OCc4sccc4Cl)c(C(N)=O)s3)c2cc1OC . Reported %Inh?
0

Value lookup for %Inh; key = CN1c2ccc(NCc3ccc(F)cc3)cc2-c2c(cnn2C)S1(=O)=O
0

Query: %Inh; subject: Fc1ccc(-c2ncn(CCCN3CCOCC3)c2-c2ccccn2)cc1
9

Which %Inh is listed for CCCCCc1nc2c(N)ncnc2n1CCCCC ?
0

---

System: EPHB6
experimental.setup: concentration: 1 μM, replicates: in singlicate; n = 1
reported.property: %Inh

In [3]: df
Out[3]:
                                   compound  reported_property  value_measured
0  Fc1ccc(-c2ncn(CCCN3CCOCC3)c2-c2ccccn2)cc1 [SB-211742]               %Inh              0%
1  Cl.Oc1cccc(Nc2ccnc3cc(-c4ccncc4)ccc23)c1 [GW494601]               %Inh             86%
2  Cn1cc(-c2ccc3c(c2)CCN3C(=O)Cc2ccccc2Cl)c2c(N)ncnc21 [GSK2608885]               %Inh           98.3%
3  N#Cc1c(N2CCOCC2)sc(-c2ccn[nH]2)c1-c1ccc(Cl)cc1               %Inh             38%
4    CCCCCc1nc2c(N)ncnc2n1CCCCC [SKF-97255]               %Inh              6%

Look up %Inh with EPHB6 for this compound: CN1c2ccc(NCc3ccc(F)cc3)cc2-c2c(cnn2C)S1(=O)=O
0%

Notebook: pull reported %Inh for EPHB6, entry Cc1cn2c(=O)cc(N3CCOCC3)nc2n1Cc1cccc(Cl)c1Cl [GSK2334006]
0%
